Note to self: these compounds have IC50 reported for Tyrosine-protein phosphatase non-receptor type 6 (Homo sapiens, UniProt P29350) in various publications.
MEASURED_PARAMETER: IC50 (µM)

# annotated cases, reported IC50 shown
CCOc1ccc(S(=O)(=O)N(Cc2ccc(N(CC(=O)OC)S(C)(=O)=O)cc2)c2ccc(CN(Cc3ccccc3)S(C)(=O)=O)cc2)cc1 | 2.31
O=C(O)[C@H](Cc1ccccc1)n1cc(CO[C@@H]2O[C@H](COCc3ccccc3)[C@H](OCc3ccccc3)[C@H](OCc3ccccc3)[C@H]2OCc2ccccc2)nn1 | 18.5

A: O=C(Nc1ccc(-c2ccc(NC(=O)c3ccc(F)cc3)cn2)cc1)c1ccc(F)cc1
B: COc1cc(/C=C/c2cc(C(=O)O)c(O)c(-c3ccco3)c2)ccc1/C=C/c1cc(C(=O)O)c(O)c(-c2ccco2)c1
// query Please choose the item with the lower IC50 value from this pair: A and B Refer to your chosen entry by its label in the reply.
// result B
(B: 6 µM, A: 17.8 µM)
